The values you see were collected from patent US4232014A.

Listed below: LD50 at 24 h values for each entry.
Assay: Acute toxicity determination in mice (ALD50, ip)
Format: in vivo, female Swiss-Webster mice
Settings: in vivo; mouse, ip, suspension in 1% tragacanth, 24 hours after administration

>  <compound>
COc1ccc(CNCCc2cc3c(cc2C)CCC3)cc1OC.Cl [VIII]

>  <LD50 at 24 h>
140 to 178 mg/kg

$$$$
>  <compound>
COc1cc2c(cc1CCNC(=O)c1cc(OC)c(OC)c(OC)c1)CCC2 [II]

>  <LD50 at 24 h>
> 1000 mg/kg

$$$$
>  <compound>
COc1ccc(CC(=O)NCCc2cc3c(cc2C)CCC3)cc1OC [VII]

>  <LD50 at 24 h>
> 1000 mg/kg

$$$$
>  <compound>
COc1cc2c(cc1CCNC(=O)Cc1ccccc1)CCC2 [III, 5-Phenylacetylaminoethyl-6-methoxyindan]

>  <LD50 at 24 h>
1000 to 1500 mg/kg

$$$$
>  <compound>
COc1cc2c(cc1CCNC(=O)c1ccccc1)CCC2 [I, 5-Benzoylaminoethyl-6-methoxyindan]

>  <LD50 at 24 h>
> 1000 mg/kg

$$$$
>  <compound>
COc1cc2c(cc1CCNC(=O)Cc1ccc(OC)c(OC)c1)CCC2 [IV]

>  <LD50 at 24 h>
500 to 1000 mg/kg

$$$$

====

Tested on: Desoxycorticosterone Hypertensive Rats
Assay: Cardiovascular activity (blood pressure and heart rate) in desoxycorticosterone hypertensive rats
Format: in vivo, male Charles River rats
Settings: 100 mg/kg ip, suspension in 1% tragacanth, 4 hr
measurement-type: Mean change in heart rate from control ± SE

>  <sample-smiles>
COc1cc2c(cc1CCNC(=O)Cc1ccccc1)CCC2

>  <observed>
+19 ± 21 beats per minute

$$$$
>  <sample-smiles>
COc1ccc(CC(=O)NCCc2cc3c(cc2C)CCC3)cc1OC

>  <observed>
+37 ± 15 beats per minute

$$$$
>  <sample-smiles>
COc1ccc(CNCCc2cc3c(cc2C)CCC3)cc1OC.Cl

>  <observed>
+4 ± 8 beats per minute

$$$$
>  <sample-smiles>
COc1cc2c(cc1CCNC(=O)Cc1ccc(OC)c(OC)c1)CCC2

>  <observed>
+14 ± 12 beats per minute

$$$$
>  <sample-smiles>
COc1cc2c(cc1CCNC(=O)c1ccccc1)CCC2

>  <observed>
-14 ± 18 beats per minute

$$$$
>  <sample-smiles>
COc1cc2c(cc1CCNC(=O)c1cc(OC)c(OC)c(OC)c1)CCC2

>  <observed>
+47 ± 29 beats per minute

$$$$
